// data source = patent US6452005B1

- system_tested: recombinant murine JAK3 (Mus musculus)
- Construct: made in house; host or cells: Sf21 insect cells, baculovirus
- Sequence (Q62137 whole entry): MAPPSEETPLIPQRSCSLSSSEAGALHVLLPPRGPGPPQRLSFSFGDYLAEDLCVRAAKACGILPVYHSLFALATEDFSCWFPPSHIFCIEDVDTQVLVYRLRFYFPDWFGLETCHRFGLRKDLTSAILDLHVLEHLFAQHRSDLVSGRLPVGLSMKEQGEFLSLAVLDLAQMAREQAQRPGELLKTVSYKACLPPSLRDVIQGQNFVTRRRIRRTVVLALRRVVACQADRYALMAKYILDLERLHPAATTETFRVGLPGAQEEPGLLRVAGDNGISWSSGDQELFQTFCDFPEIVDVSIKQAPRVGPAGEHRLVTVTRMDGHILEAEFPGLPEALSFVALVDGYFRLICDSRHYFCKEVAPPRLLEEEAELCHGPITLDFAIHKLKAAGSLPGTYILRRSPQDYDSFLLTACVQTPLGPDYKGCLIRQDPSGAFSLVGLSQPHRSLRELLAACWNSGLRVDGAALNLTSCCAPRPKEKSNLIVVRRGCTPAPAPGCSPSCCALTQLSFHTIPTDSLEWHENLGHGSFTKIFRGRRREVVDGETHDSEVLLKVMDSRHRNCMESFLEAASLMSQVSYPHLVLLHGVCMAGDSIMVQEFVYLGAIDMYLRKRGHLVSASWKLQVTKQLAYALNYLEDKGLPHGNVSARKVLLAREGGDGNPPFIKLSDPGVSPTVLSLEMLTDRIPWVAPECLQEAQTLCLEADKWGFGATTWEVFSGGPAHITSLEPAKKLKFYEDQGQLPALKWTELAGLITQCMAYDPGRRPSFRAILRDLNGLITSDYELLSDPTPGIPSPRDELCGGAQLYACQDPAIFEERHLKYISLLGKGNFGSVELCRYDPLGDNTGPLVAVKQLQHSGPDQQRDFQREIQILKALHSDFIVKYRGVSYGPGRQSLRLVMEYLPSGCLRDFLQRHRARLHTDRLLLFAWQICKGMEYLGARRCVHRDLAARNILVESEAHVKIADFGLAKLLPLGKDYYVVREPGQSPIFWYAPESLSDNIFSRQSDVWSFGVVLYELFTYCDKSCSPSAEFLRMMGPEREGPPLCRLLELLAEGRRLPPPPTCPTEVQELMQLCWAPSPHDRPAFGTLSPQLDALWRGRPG
- assay_remarks: Immune complex kinase assay, recombinant JAK3 from baculovirus expression system
- Assay type: biochemical
- test_parameters: recombinant murine JAK3, FIG. 6B, molar value in brackets; read-out: IC50
pIC50: −log10 of the molar value.
readout_type: pIC50

Input: Given COc1cc2ncnc(Nc3ccc(O)c(Br)c3)c2cc1OC , respond with its pIC50.
Output: ~3.89

* * *

- assay_remarks: Pharmacokinetic studies in mice
- Assay type: in vivo
- test_parameters: i.v., 12.5 mg/kg bolus, read-out: estimated maximum plasma concentration (Cmax)
readout_type: Cmax
Be sure to follow the number with its unit.

Input: Given COc1cc2ncnc(Nc3ccc(O)cc3)c2cc1OC , respond with its Cmax.
Output: 85.6 µM
